# Experimental System: T1, Murine B7-H4-Fc (Mouse B7H4 ECD, Fc_6His) (mouse, UniProt Q7TSP5 25-257)
# T1 construct: extracellular domain; also called mouse B7-H4-Fc; FcHis6 tagged murine B7-H4
# T1 sequence (Q7TSP5 whole entry, looked up): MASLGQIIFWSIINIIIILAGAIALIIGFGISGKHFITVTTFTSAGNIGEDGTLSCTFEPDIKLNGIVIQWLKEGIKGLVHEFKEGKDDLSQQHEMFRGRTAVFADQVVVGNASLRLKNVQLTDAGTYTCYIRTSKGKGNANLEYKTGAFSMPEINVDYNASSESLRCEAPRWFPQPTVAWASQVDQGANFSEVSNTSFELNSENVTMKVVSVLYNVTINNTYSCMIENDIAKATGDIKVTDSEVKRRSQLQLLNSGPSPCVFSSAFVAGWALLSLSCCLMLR
# Test Description: HTRF binding, human IgG1
Property: pEC50
Answers are plain numbers, as −log10 of the molar value.

# example entries with known answers
[[record]]
binder = "ZY0EQD-E02 human IgG1 (antibody, V domains shown) VH: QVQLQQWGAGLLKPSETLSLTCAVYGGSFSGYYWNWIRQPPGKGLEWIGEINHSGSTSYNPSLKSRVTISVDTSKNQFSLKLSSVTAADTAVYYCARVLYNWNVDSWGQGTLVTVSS VL: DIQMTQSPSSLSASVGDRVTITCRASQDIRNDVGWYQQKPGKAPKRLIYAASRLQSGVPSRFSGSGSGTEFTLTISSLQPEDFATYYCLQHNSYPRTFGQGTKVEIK"
measured = 8.85

[[record]]
binder = "ZY0EO5-E07 human IgG1 (antibody, V domains shown, also called ZY0E05-E07; E05-E07) VH: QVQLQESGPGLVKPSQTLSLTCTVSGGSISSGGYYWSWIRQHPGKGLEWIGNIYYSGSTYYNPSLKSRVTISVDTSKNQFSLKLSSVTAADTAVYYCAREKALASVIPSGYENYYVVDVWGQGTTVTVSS VL: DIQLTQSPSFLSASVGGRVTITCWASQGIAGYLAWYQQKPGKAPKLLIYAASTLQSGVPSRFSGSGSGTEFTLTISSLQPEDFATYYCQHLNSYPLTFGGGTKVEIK"
measured = 9.68

[[record]]
binder = "ZY0EOB-F05 human IgG1 (antibody, V domains shown) VH: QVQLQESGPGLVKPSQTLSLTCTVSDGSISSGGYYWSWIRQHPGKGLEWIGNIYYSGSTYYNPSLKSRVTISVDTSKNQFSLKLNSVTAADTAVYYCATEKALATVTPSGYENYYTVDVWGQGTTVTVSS VL: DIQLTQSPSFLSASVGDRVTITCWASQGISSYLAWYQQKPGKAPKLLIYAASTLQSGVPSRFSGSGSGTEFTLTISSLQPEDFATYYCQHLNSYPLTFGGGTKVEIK"
measured = 9.72


Give pEC50 for each of the items listed below.
1. ZY0EPQ-E02 human IgG1 (antibody, V domains shown) VH: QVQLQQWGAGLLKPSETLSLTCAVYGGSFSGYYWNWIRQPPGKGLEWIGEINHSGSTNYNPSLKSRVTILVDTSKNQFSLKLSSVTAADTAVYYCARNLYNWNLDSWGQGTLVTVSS VL: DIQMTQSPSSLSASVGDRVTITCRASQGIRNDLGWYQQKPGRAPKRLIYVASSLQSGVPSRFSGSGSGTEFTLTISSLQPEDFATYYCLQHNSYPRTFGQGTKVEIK
2. ZY0EP0-C07 human IgG1 (antibody, V domains shown, also called ZY0EPO-C07) VH: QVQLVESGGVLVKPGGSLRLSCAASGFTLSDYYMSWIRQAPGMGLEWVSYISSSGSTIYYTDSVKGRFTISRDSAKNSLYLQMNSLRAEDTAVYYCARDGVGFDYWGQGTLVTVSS VL: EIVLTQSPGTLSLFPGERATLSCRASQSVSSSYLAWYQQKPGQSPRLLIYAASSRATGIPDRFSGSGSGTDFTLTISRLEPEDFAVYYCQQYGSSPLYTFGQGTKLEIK

8.83
9.74
